Record form. Attribute: Kd. Fill in for each entry.
Biological target: thrombin (alpha-thrombin) (Homo sapiens, UniProt P00734;P00734 P00734:315-363,P00734:364-622)
Assay: filter
Use nM as the unit, but write only the number.

Task item: In one line, give reported Kd of the entry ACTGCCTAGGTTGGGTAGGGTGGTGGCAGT (XNA, 2'-OMe G9, rest DNA) [ARC2621] .
Reply: 1.52

Task item: In one line, give reported Kd of the entry AAUGAUTAGGTTGGGTAGGGTGGTAUCAUU (XNA, 2'-OMe 1-6,25-30, rest DNA) [ARC2828] .
Reply: 0.33

Task item: In one line, give reported Kd of the entry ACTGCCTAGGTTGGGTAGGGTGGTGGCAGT (ssDNA, PS between T12 and G13) [ARC2655] .
Reply: 0.079

Task item: In one line, give reported Kd of the entry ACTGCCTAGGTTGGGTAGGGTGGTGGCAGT (ssDNA, PS between G10 and T11) [ARC2653] .
Reply: 0.066

The origin of these recorded values is patent US20090221680.
